Values from patent US20180110824A1

target_desc: human growth hormone secretagogue receptor (hGHS-R1a) (Homo sapiens, UniProt Q92847)
Construct: purchased PerkinElmer BioSignal #RBHGHSM; host or cells: HEK-293, stably transfected
Sequence (Q92847 whole entry): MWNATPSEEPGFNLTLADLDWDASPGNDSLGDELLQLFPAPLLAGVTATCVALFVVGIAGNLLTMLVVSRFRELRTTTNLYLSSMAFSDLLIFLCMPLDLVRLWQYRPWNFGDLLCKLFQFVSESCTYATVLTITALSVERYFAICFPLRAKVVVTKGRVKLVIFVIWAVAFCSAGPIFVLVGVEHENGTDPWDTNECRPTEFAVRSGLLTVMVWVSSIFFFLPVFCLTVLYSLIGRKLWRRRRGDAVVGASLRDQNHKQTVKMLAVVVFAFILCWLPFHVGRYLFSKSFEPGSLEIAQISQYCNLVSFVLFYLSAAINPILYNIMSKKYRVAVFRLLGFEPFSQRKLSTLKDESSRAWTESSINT
protocol_description: Competitive radioligand binding assay (ghrelin receptor), [125I]-ghrelin displacement on GHS-R/HEK 293 membranes
settings: Binding activity at the human ghrelin receptor, [125I]-ghrelin displacement; read-out: Ki
pKi: −log10 of the molar value.
Entries annotated with measured pKi

[
  {
    "compound": "CC(C)[C@@H]1NCCOc2ccccc2CCCNC(=O)[C@@H](Cc2ccccc2)NC(=O)CN(C)C1=O [Compound 3]",
    "pKi": "6.00 to 7.00"
  },
  {
    "compound": "CC(C)C[C@@H]1NCCOc2ccccc2/C=C/CNC(=O)[C@H](CC(C)C)NC(=O)C2(CCCC2)NC1=O [compound 47]",
    "pKi": "6.00 to 7.00"
  },
  {
    "compound": "CCCC[C@H]1NC(=O)CN(C)C(=O)[C@H](CCC)NCCOc2ccccc2CCCNC1=O [compound 52]",
    "pKi": "6.00 to 7.00"
  },
  {
    "compound": "CC(C)C[C@@H]1NCCOCCNC(=O)[C@H](Cc2ccccc2)NC(=O)C2(CCCC2)NC1=O [compound 44]",
    "pKi": "< 5.00"
  }
]
